experimental-system: human EP4 receptor (hEP4) (Homo sapiens, UniProt P35408)
Construct: plasma membrane fraction
Sequence (P35408 whole entry): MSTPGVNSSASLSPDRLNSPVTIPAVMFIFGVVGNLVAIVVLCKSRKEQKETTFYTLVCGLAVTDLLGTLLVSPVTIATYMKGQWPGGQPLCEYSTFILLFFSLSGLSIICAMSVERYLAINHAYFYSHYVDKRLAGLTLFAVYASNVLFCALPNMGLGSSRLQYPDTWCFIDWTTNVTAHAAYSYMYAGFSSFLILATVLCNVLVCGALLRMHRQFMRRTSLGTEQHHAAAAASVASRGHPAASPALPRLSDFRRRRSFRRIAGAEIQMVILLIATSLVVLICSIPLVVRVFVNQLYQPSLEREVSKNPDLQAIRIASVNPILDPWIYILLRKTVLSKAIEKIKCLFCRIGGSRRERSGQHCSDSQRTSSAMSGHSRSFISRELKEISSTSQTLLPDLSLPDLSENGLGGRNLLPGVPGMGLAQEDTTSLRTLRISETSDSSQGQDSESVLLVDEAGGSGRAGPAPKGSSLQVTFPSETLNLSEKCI
measurement-notes: Radioligand binding competition vs [3H]PGE2, human recombinant EP4 receptor
condition-set: [3H]PGE2 competition, plasma membranes of HEK-293 stable transfectants, 60 min 25° C.
attribute-measured: pIC50
Keep it numeric: pIC50 is minus log10 of the concentration in mol/L.

Task: Entry under review: O=C(O)CSCCCS[C@H]1C(=O)C[C@@H](O)[C@@H]1/C=C/C(O)Cc1csc2ccccc12 (single isomer, unassigned) [Example 25H] . Reported pIC50?
Output: 7.16

Task: Entry under review: O=C(O)CSCCCS[C@H]1C(=O)C[C@@H](O)[C@@H]1/C=C/C(O)Cc1ccc2ccccc2c1 (single isomer, unassigned) [Example 22H] . Reported pIC50?
Output: 7.49

Task: Entry under review: COC(=O)CSCCCS[C@H]1C(=O)C[C@@H](O)[C@@H]1/C=C/C(C)(O)CCc1ccc2ccccc2c1 (single isomer, unassigned) [Example 27L] . Reported pIC50?
Output: 5.47
